Each entry below carries its reported T/C.
# System: L1210 leukemia ip in BDF1 mice, survival T/C
# test-name: NCI In Vivo Anticancer Drug Screen. Data for tumor model L1210 Leukemia (intraperitoneal) in B6D2F1 (BDF1) mice
# assay-conditions: endpoint: mean survival time; dose: 200.0 mg/kg/injection; schedule: Q04DX003 (ip); vehicle: saline; higher = longer survival
Toxic doses and inconclusive results are not listed.

Known T/C results, listed for orientation:
compound | T/C
[Br][La]([Br])[Br] | 91 % of control
COc1ccc(C=[N+](C)CCc2ccc(OC)c(OC)c2)cc1OC | 97 % of control
CCN(CC)C(=O)Cn1cc(F)c(N)nc1=O | 92 % of control

Next, consider the following compound.
Request: Specify the recorded T/C for Clc1ccccc1Nc1c2ccccc2nc2ccccc12 , system: L1210 leukemia ip in BDF1 mice, survival T/C.
Result: 102 % of control

###

# Tested on: L1210 leukemia ip in BDF1 mice, survival T/C
# test-name: NCI In Vivo Anticancer Drug Screen. Data for tumor model L1210 Leukemia (intraperitoneal) in B6D2F1 (BDF1) mice
# assay-conditions: endpoint: mean survival time; dose: 50.0 mg/kg/injection; schedule: Q04DX003 (ip); vehicle: saline with Tween-80; higher = longer survival
Toxic doses and inconclusive results are not listed.
Each entry below carries its reported T/C.

smiles-text | system-tested | measured-value
O=C(O)Cc1cccc(S(=O)(=O)F)c1 | L1210 leukemia ip in BDF1 mice, survival T/C | 99 % of control

Request: Specify the recorded T/C for COC(=O)c1ccccc1N=NN(C)CC(C)C , system: L1210 leukemia ip in BDF1 mice, survival T/C.
Result: 103 % of control

Request: Specify the recorded T/C for C1=C[N]2c3c4c(ccc3=C1)=CC=C[N]4[Ga]2[c]1ccccc1 , system: L1210 leukemia ip in BDF1 mice, survival T/C.
Result: 97 % of control

Request: Specify the recorded T/C for Nc1nc2c(ncn2-c2cccc(-c3ccccc3)c2)c(=O)[nH]1 , system: L1210 leukemia ip in BDF1 mice, survival T/C.
Result: 102 % of control

###

# System: L1210 leukemia ip in BDF1 mice, survival T/C
# test-name: NCI In Vivo Anticancer Drug Screen. Data for tumor model L1210 Leukemia (intraperitoneal) in B6D2F1 (BDF1) mice
# assay-conditions: endpoint: mean survival time; dose: 25.0 mg/kg/injection; schedule: Q01DX009 (ip); vehicle: saline with Tween-80; higher = longer survival
Toxic doses and inconclusive results are not listed.
observation-type: T/C

Request: Look up and state reported T/C for C=CCOCCC#N
Result: 95 % of control

Request: Look up and state reported T/C for N#C/C(=C\c1ccc([N+](=O)[O-])o1)[N+](=O)[O-]
Result: 110 % of control

Request: Look up and state reported T/C for CC1(C)N=C(N)N=C(N)N1c1ccc(OCCCCNC(=O)Nc2cccc(S(=O)(=O)F)c2)c(Cl)c1
Result: 100 % of control

Request: Look up and state reported T/C for C1COC(NC2CC3CCC2C3)=N1 (stereo unspecified)
Result: 100 % of control

Request: Look up and state reported T/C for COc1ccc(C=NCCN=Cc2ccc(OC)cc2OC)c(OC)c1
Result: 87 % of control

Request: Look up and state reported T/C for O=C(Nc1cccc(C(F)(F)F)c1)Nc1ccc2sc(=S)[nH]c2c1
Result: 93 % of control

###

Each entry below carries its reported T/C.
# System: L1210 leukemia ip in BDF1 mice, survival T/C
# test-name: NCI In Vivo Anticancer Drug Screen. Data for tumor model L1210 Leukemia (intraperitoneal) in B6D2F1 (BDF1) mice
# assay-conditions: endpoint: mean survival time; dose: 25.0 mg/kg/injection; schedule: Q01DX009 (ip); vehicle: saline; higher = longer survival
Toxic doses and inconclusive results are not listed.

molecule | measured-value
c1ccc2c(C(CCN3CCOCC3)(CCN3CCOCC3)CNC3=NCCN3)cccc2c1 | 109 % of control
CCN(CC)CCOC(=S)Nc1ccccc1 | 100 % of control
CCC1CC(C#N)C(=O)NC1=O (stereo not given) | 93 % of control
CCN(CC)CCCC(C)Nc1c2ccc(Cl)cc2nc2cc(Cl)ccc12 (stereo not given) | 92 % of control
CN(C)c1ccc(N=Cc2cc[n+](C)cc2)cc1 | 92 % of control

Request: Look up and state reported T/C for Cc1cccc(Cl)c1NC(=O)C(C)N1CCCC1 (stereo not given)
Result: 98 % of control

Request: Look up and state reported T/C for C=CCN(C(=O)OCC)P(=O)(OCC)OCC
Result: 112 % of control

Request: Look up and state reported T/C for COC(=O)C1=C(O)CN(C)C1=O
Result: 101 % of control

Request: Look up and state reported T/C for COc1ccc(C=[N+](C)CCc2ccc(OC)c(OC)c2)cc1OC
Result: 96 % of control

Request: Look up and state reported T/C for OC(CCl)CBr (stereo not given)
Result: 94 % of control

Request: Look up and state reported T/C for NNCCc1ccccc1
Result: 95 % of control

Request: Look up and state reported T/C for OCCN1CCN(CC/C=C2/c3ccccc3Sc3ccc(Cl)cc32)CC1
Result: 116 % of control

Request: Look up and state reported T/C for CC(=O)Nc1cccc(N)c1
Result: 95 % of control

Request: Look up and state reported T/C for C=CCNP(=O)(OCC)OCC
Result: 87 % of control

Request: Look up and state reported T/C for O=C(CCCN1CCC(n2c(=O)[nH]c3ccccc32)CC1)c1ccc(F)cc1
Result: 110 % of control

###

# Tested on: L1210 leukemia ip in BDF1 mice, survival T/C
# test-name: NCI In Vivo Anticancer Drug Screen. Data for tumor model L1210 Leukemia (intraperitoneal) in B6D2F1 (BDF1) mice
# assay-conditions: endpoint: mean survival time; dose: 100.0 mg/kg/injection; schedule: Q04DX003 (ip); vehicle: carboxymethylcellulose (CMC); higher = longer survival
Inconclusive results and toxic doses are left out.
observation-type: T/C

Known T/C results, listed for orientation:
molecule | T/C
O=C1CC(Cc2n[nH]c3c2CCC3)CC(=O)N1 | 97 % of control
COC(=O)c1ccccc1C(=O)c1ccccc1 | 101 % of control
C[N+]1(CCCl)CC[N+](C)(CCCl)CC1 (centres undefined) | 97 % of control

Next, consider the following molecule.
Request: Look up and state reported T/C for CCOC(=O)c1cc(Cl)c2c(ccc3ccccc32)n1
Result: 105 % of control

###

# Test system: L1210 leukemia ip in BDF1 mice, survival T/C
# test-name: NCI In Vivo Anticancer Drug Screen. Data for tumor model L1210 Leukemia (intraperitoneal) in B6D2F1 (BDF1) mice
# assay-conditions: endpoint: mean survival time; dose: 12.5 mg/kg/injection; schedule: Q01DX009 (ip); vehicle: saline; higher = longer survival
Inconclusive results and toxic doses are left out.
observation-type: T/C

molecule | T/C
CCOCC(C#N)C#N | 92 % of control

Request: Specify the recorded T/C for O=CN(O)CC(=O)O.[Ni] , system: L1210 leukemia ip in BDF1 mice, survival T/C.
Result: 109 % of control

Request: Specify the recorded T/C for c1ccc2c(C(CCN3CCOCC3)(CCN3CCOCC3)CNC3=NCCN3)cccc2c1 , system: L1210 leukemia ip in BDF1 mice, survival T/C.
Result: 105 % of control

Request: Specify the recorded T/C for OC(O)(C(F)(F)F)C(F)(F)F , system: L1210 leukemia ip in BDF1 mice, survival T/C.
Result: 95 % of control

Request: Specify the recorded T/C for NNCCc1ccccc1 , system: L1210 leukemia ip in BDF1 mice, survival T/C.
Result: 101 % of control

Request: Specify the recorded T/C for CCC1CC(C#N)C(=O)NC1=O (stereo unspecified) , system: L1210 leukemia ip in BDF1 mice, survival T/C.
Result: 91 % of control

###

# Test system: L1210 leukemia ip in BDF1 mice, survival T/C
# test-name: NCI In Vivo Anticancer Drug Screen. Data for tumor model L1210 Leukemia (intraperitoneal) in B6D2F1 (BDF1) mice
# assay-conditions: endpoint: mean survival time; dose: 200.0 mg/kg/injection; schedule: Q01DX001 (ip); vehicle: saline; higher = longer survival
Inconclusive results and toxic doses are left out.
observation-type: T/C

Request: Look up and state reported T/C for O=C1CCCC(=O)NNC(=O)Nc2ccccc2NC(=O)NN1
Result: 96 % of control

Request: Look up and state reported T/C for Cc1cc(Cl)c(OCC(=O)O)c(Cl)c1
Result: 92 % of control

Request: Look up and state reported T/C for CCSCC1OC2OC(C)(C)OC2C1O (stereo not given)
Result: 111 % of control

Request: Look up and state reported T/C for S=P(Nc1ccccc1)(Nc1ccccc1)Oc1cc(Cl)c(Cl)cc1Cl
Result: 93 % of control

Request: Look up and state reported T/C for O=C(CCCC(=O)N/N=C/c1ccc(Cl)c(Cl)c1)N/N=C\c1ccc(Cl)c(Cl)c1
Result: 118 % of control
